Values from ChEMBL document CHEMBL1127968

TEST TARGET: Neutrophil elastase (Homo sapiens)
Sequence (P08246 whole entry): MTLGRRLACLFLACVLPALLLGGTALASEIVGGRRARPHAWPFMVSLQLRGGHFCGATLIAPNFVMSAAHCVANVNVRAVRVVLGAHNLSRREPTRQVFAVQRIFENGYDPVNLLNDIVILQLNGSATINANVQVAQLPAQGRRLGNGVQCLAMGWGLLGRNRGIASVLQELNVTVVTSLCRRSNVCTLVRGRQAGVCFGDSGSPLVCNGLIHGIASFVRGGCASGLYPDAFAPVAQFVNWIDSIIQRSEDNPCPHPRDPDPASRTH
PROTOCOL TEXT: In vitro inhibitory activity against human leukocyte elastase was determined
pKi: −log10 of the molar value.
READOUT LABEL: pKi

CC(C)[C@H](NC(=O)OCc1ccccc1)C(=O)N1CCC[C@H]1C(=O)N[C@H](C(=O)C(F)(F)C(N)=O)C(C)C 9.42

P. CC(C)[C@H](NC(=O)OCc1ccccc1)C(=O)N1CCC[C@H]1C(=O)N[C@H](C(=O)C(F)(F)CNCc1ccccc1)C(C)C
Q. CNC(=O)C(F)(F)C(=O)[C@@H](NC(=O)[C@@H]1CCCN1C(=O)[C@@H](NC(=O)Oc1ccccc1)C(C)C)C(C)C
Request: Select the item with the higher value of pKi from the options P and Q listed. Indicate your choice by writing its label.
Response: Q
